- TARGET: G-protein coupled receptor 151 (Homo sapiens) (UniProt Q8TDV0)
- Sequence (Q8TDV0 whole entry, looked up): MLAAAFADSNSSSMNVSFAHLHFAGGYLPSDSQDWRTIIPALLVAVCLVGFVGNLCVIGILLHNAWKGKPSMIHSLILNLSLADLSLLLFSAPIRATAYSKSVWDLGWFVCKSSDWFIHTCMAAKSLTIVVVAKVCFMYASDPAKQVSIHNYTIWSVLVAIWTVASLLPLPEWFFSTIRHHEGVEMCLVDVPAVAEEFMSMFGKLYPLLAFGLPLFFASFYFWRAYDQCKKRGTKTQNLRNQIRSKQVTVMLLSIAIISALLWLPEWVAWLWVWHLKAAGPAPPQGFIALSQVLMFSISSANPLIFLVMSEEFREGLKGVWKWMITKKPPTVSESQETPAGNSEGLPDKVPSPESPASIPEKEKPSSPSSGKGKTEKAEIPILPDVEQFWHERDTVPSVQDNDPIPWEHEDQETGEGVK
- TEST_PROTOCOL: activators of human GPR151, primary screen, cell-based, PathHunter beta-arrestin, luminescence (AID 1508602);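 also: 0% = median of compound wells and 100% = cells with positive control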
- PROTOCOL_CONDITIONS: PathHunter beta-arrestin GPR151 cells, at 11.2 µM
Hit rate of the full screen: of about 650,000 compounds, about 6,800 (1%) were called active. Rule as the data show it: active = activation above about 4.9%; inactive = the rest. Shown is part of a subset that was picked to be rich in actives.
Answer with one of the outcomes true (1) for active, false (0) for inactive

compound="COc1cc(Br)cc(CN2CC3CC(C2)c2cccc(=O)n2C3)c1O (stereo not given)" target="G-protein coupled receptor 151 (Homo sapiens) (UniProt Q8TDV0)" label_value="false (0)"
compound="Cc1cc(Cl)ccc1C(=O)C1CCCN(Cc2ncc[nH]2)C1 (stereo not given)" target="G-protein coupled receptor 151 (Homo sapiens) (UniProt Q8TDV0)" label_value="false (0)"
compound=Cc1ccc(Cc2nc[nH]c2C)cc1 target="G-protein coupled receptor 151 (Homo sapiens) (UniProt Q8TDV0)" label_value="false (0)"

Consider the record given below.
// return assay outcome for COc1ccc(CCNCc2ccc(O)cc2)cc1
false (0)

---

- TARGET: G-protein coupled receptor 151 (Homo sapiens)
- TEST_PROTOCOL: activators of human GPR151, primary screen, cell-based, PathHunter beta-arrestin, luminescence (AID 1508602);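 also: 0% = median of compound wells and 100% = cells with positive control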
- PROTOCOL_CONDITIONS: PathHunter beta-arrestin GPR151 cells, at 11.2 µM, hits give high values
Hit rate of the full screen: of about 650,000 compounds, about 6,800 (1%) were called active. The sample as a whole holds a higher share of actives than the screen did.
READOUT_LABEL: activation (%)
# output: bare number, implied unit %

Observe how each entry below is paired with its result.
molecule=CC[n+]1c(/C=C/C=C2\N(C)c3ccccc3C2(C)C)n(-c2ccccc2)c2ccc(Cl)cc21 unit_string=% observed=5.9
molecule="CCOC(=O)C1=C(C)OC(N)=C(C(=O)OC)C12C(=O)Nc1ccc(Br)cc12 (stereo unspecified)" unit_string=% observed=-0.299
molecule=COc1cc(NC(=O)CCc2nc(C3=CCN(C)CC3)no2)cc(OC)c1OC unit_string=% observed=-0.399

What value of activation has been recorded for this entry: CC(C)c1ccc(NC(=O)c2cc3cccnc3n(Cc3ccc(F)cc3)c2=O)cc1
1.47

Look up activation: O=c1cccc2n1CC1CC2CN(Cc2ccc(F)cc2)C1 (stereo unspecified)
1.89

Please report the recorded activation for COc1cc(/C=C2\C(=O)NC(=O)N(c3ccccc3)C2=O)ccc1O .
8.77
